Hey, just so you know, these numbers are from ChEMBL document CHEMBL2380212.

# System: K562
# protocol.description: Cytotoxicity against human K562 cells at 10 uM after 48 hrs by SRB assay
# Type: functional
# applied.conditions: K562, 48 h, read-out: GI
Label Criterion met when inhibition of growth at 10 µM >= 30%; otherwise Criterion not met.

Example entries begin here.
O=c1[nH]cc(F)c(=O)[nH]1 Criterion met
C=CCn1c(C)nc2ccc(Nc3nc(N4CCCC4)nc4ccccc34)cc21 Criterion met
C=CCn1c(C)nc2cc(Nc3nc(N4CCOCC4)nc4ccccc34)ccc21 Criterion not met
C=CCn1c(C)nc2ccc(Nc3nc(Cl)nc4ccccc34)cc21 Criterion not met
C=CCn1c(C)nc2ccc(Nc3nc(N4CCN(C)CC4)nc4ccccc34)cc21 Criterion met
C=CCn1c(C)nc2cc(Nc3nc(N4CCCC4)nc4ccccc34)ccc21 Criterion not met
C=CCn1c(C)nc2cc(Nc3nc(Cl)nc4ccccc34)ccc21 Criterion not met

Attention now turns to another entry.
Incoming: Hello, I need to know if C=CCn1c(C)nc2ccc(Nc3nc(N4CCOCC4)nc4ccccc34)cc21 has measured inhibition of growth at 10 µM not below 30%. Thanks!
Outgoing: Criterion met

====

# protocol.description: n-Octanol-phosphate buffer partition coefficient, log P of the compound at pH 7.4 by shake flask method
# Assay type: physicochemical
measurement.label: logD

Consider the reported logD for these compounds:
C=CCn1c(C)nc2cc(Nc3nc(N4CCCC4)nc4ccccc34)ccc21 2.51
C=CCn1c(C)nc2ccc(Nc3nc(N4CCOCC4)nc4ccccc34)cc21 2.81
C=CCn1c(C)nc2cc(Nc3nc(Cl)nc4ccccc34)ccc21 1.17
C=CCn1c(C)nc2ccc(Nc3nc(Cl)nc4ccccc34)cc21 2.1
C=CCn1c(C)nc2ccc(Nc3nc(N4CCCC4)nc4ccccc34)cc21 2.9

Incoming: Which logD value belongs to C=CCn1c(C)nc2ccc(Nc3nc(N4CCCCC4)nc4ccccc34)cc21 ?
Outgoing: 2.72

Incoming: Which logD value belongs to C=CCn1c(C)nc2cc(Nc3nc(N4CCOCC4)nc4ccccc34)ccc21 ?
Outgoing: 2.49

Incoming: Which logD value belongs to C=CCn1c(C)nc2ccc(Nc3nc(N4CCN(C)CC4)nc4ccccc34)cc21 ?
Outgoing: 1.03

====

# Tested on: KM12
# protocol.description: Cytotoxicity against human KM12 cells at 10 uM after 48 hrs by SRB assay
# Type: functional
# applied.conditions: KM12, 48 h, read-out: GI
measurement.label: inhibition of growth at 10 µM (%)
Your answer is read as %, so omit the unit and give the number.

Consider the reported inhibition of growth at 10 µM for these compounds:
compound	observed
O=c1[nH]cc(F)c(=O)[nH]1 [FLUOROURACIL]	40.7
C=CCn1c(C)nc2ccc(Nc3nc(N4CCN(C)CC4)nc4ccccc34)cc21	20.5
C=CCn1c(C)nc2ccc(Nc3nc(N4CCOCC4)nc4ccccc34)cc21	11.9

Incoming: Which inhibition of growth at 10 µM value belongs to C=CCn1c(C)nc2ccc(Nc3nc(N4CCCC4)nc4ccccc34)cc21 ?
Outgoing: 29.9

====

# Test system: NCI-H460
# protocol.description: Cytotoxicity against human NCI-H460 cells at 10 uM after 48 hrs by SRB assay
# Assay type: functional
# applied.conditions: NCI-H460, 48 h, read-out: GI
Reported inhibition of growth at 10 µM by item:

Consider the reported inhibition of growth at 10 µM for these compounds:
compound	measurement.label	observed
C=CCn1c(C)nc2cc(Nc3nc(N4CCOCC4)nc4ccccc34)ccc21	inhibition of growth at 10 µM	< 10%
C=CCn1c(C)nc2ccc(Nc3nc(N4CCN(C)CC4)nc4ccccc34)cc21	inhibition of growth at 10 µM	< 10%
C=CCn1c(C)nc2cc(Nc3nc(Cl)nc4ccccc34)ccc21	inhibition of growth at 10 µM	< 10%
C=CCn1c(C)nc2ccc(Nc3nc(N4CCOCC4)nc4ccccc34)cc21	inhibition of growth at 10 µM	< 10%
C=CCn1c(C)nc2cc(Nc3nc(N4CCCC4)nc4ccccc34)ccc21	inhibition of growth at 10 µM	< 10%

Incoming: Which inhibition of growth at 10 µM value belongs to C=CCn1c(C)nc2ccc(Nc3nc(Cl)nc4ccccc34)cc21 ?
Outgoing: < 10%

Incoming: Which inhibition of growth at 10 µM value belongs to C=CCn1c(C)nc2ccc(Nc3nc(N4CCCC4)nc4ccccc34)cc21 ?
Outgoing: 18.7%

Incoming: Which inhibition of growth at 10 µM value belongs to O=c1[nH]cc(F)c(=O)[nH]1 [FLUOROURACIL] ?
Outgoing: 13%

====

# Test system: RXF 393
# protocol.description: Cytotoxicity against human RXF393 cells at 10 uM after 48 hrs by SRB assay
# Type: functional
# applied.conditions: RXF 393, 48 h, read-out: GI
measurement.label: inhibition of growth at 10 µM

Consider the reported inhibition of growth at 10 µM for these molecules:
C=CCn1c(C)nc2cc(Nc3nc(N4CCOCC4)nc4ccccc34)ccc21 < 10%
C=CCn1c(C)nc2cc(Nc3nc(Cl)nc4ccccc34)ccc21 < 10%
O=c1[nH]cc(F)c(=O)[nH]1 34.3%
C=CCn1c(C)nc2ccc(Nc3nc(N4CCOCC4)nc4ccccc34)cc21 < 10%
C=CCn1c(C)nc2ccc(Nc3nc(Cl)nc4ccccc34)cc21 12.5%

Incoming: Which inhibition of growth at 10 µM value belongs to C=CCn1c(C)nc2ccc(Nc3nc(N4CCN(C)CC4)nc4ccccc34)cc21 ?
Outgoing: < 10%

Incoming: Which inhibition of growth at 10 µM value belongs to C=CCn1c(C)nc2cc(Nc3nc(N4CCCC4)nc4ccccc34)ccc21 ?
Outgoing: < 10%

Incoming: Which inhibition of growth at 10 µM value belongs to C=CCn1c(C)nc2ccc(Nc3nc(N4CCCC4)nc4ccccc34)cc21 ?
Outgoing: 47.6%

====

# Test system: HOP-92
# protocol.description: Cytotoxicity against human HOP92 cells at 10 uM after 48 hrs by SRB assay
# Type: functional
# applied.conditions: HOP-92, 48 h, read-out: GI
measurement.label: inhibition of growth at 10 µM (%)
Your answer is read as %, so omit the unit and give the number.

Consider the reported inhibition of growth at 10 µM for these compounds:
compound	measurement.label	observed
C=CCn1c(C)nc2cc(Nc3nc(N4CCCC4)nc4ccccc34)ccc21	inhibition of growth at 10 µM	15.5
C=CCn1c(C)nc2ccc(Nc3nc(N4CCCC4)nc4ccccc34)cc21	inhibition of growth at 10 µM	18.6
O=c1[nH]cc(F)c(=O)[nH]1 [FLUOROURACIL]	inhibition of growth at 10 µM	50.6

Let's switch to this compound now.
Incoming: Lab request: please report inhibition of growth at 10 µM under test system HOP-92 for C=CCn1c(C)nc2ccc(Nc3nc(N4CCN(C)CC4)nc4ccccc34)cc21
Outgoing: 42.4

====

# Tested on: 786-0
# protocol.description: Cytotoxicity against human 786-0 cells at 10 uM after 48 hrs by SRB assay
# Format: functional
# applied.conditions: 786-0, 48 h, read-out: GI
measurement.label: inhibition of growth at 10 µM (%)
Your answer is read as %, so omit the unit and give the number.

C=CCn1c(C)nc2ccc(Nc3nc(Cl)nc4ccccc34)cc21 12.2
C=CCn1c(C)nc2ccc(Nc3nc(N4CCCC4)nc4ccccc34)cc21 24
O=c1[nH]cc(F)c(=O)[nH]1 48.7

Let's switch to this molecule now.
Incoming: Lab request: please report inhibition of growth at 10 µM under test system 786-0 for C=CCn1c(C)nc2cc(Nc3nc(N4CCCC4)nc4ccccc34)ccc21
Outgoing: 11.1

====

# Test system: CAKI-1
# protocol.description: Cytotoxicity against human Caki1 cells at 10 uM after 48 hrs by SRB assay
# Assay type: functional
# applied.conditions: CAKI-1, 48 h, read-out: GI
Reported inhibition of growth at 10 µM by item:
Your answer is read as %, so omit the unit and give the number.

C=CCn1c(C)nc2ccc(Nc3nc(N4CCN(C)CC4)nc4ccccc34)cc21 14.4
C=CCn1c(C)nc2ccc(Nc3nc(Cl)nc4ccccc34)cc21 12.8
C=CCn1c(C)nc2cc(Nc3nc(N4CCCC4)nc4ccccc34)ccc21 10.2
C=CCn1c(C)nc2ccc(Nc3nc(N4CCOCC4)nc4ccccc34)cc21 11.5

Incoming: Lab request: please report inhibition of growth at 10 µM under test system CAKI-1 for O=c1[nH]cc(F)c(=O)[nH]1
Outgoing: 39.4

Incoming: Lab request: please report inhibition of growth at 10 µM under test system CAKI-1 for C=CCn1c(C)nc2ccc(Nc3nc(N4CCCC4)nc4ccccc34)cc21
Outgoing: 15

Incoming: Lab request: please report inhibition of growth at 10 µM under test system CAKI-1 for C=CCn1c(C)nc2cc(Nc3nc(Cl)nc4ccccc34)ccc21
Outgoing: 16.9
